System: MDA-MB-468 spheroids with HUVEC/MSC, viability
TEST NAME: Anticancer human tumor MDA-MB-468 cell line growth inhibition [PI3K];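 also: spheroids exposed to agents for seven days before readout; 100% = DMSO vehicle control viability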
SETTINGS: second compound 0.1 µM; first compound 0.0316 µM; active compounds read low
Excerpt: Combinatorial screen of targeted agents with the PI3K inhibitors inavolisib, alpelisib, duvelisib, and copanlisib in multi-cell type tumor spheroids A high-throughput screen of multi-cell type tumor spheroids was designed to identify active combinations of targeted small molecules and PI3K pathway inhibitors. […] Compounds. […] If the clinical Cmax for an agent had not been determined, the highest concentration tested was 10 microM. […]
Listed below: viability, T/C values for each entry.

[
  {
    "COMPOUND": "Cn1ncnc1[C@H]1c2n[nH]c(=O)c3cc(F)cc(c23)N[C@@H]1c1ccc(F)cc1 + CC(Nc1ccc2c(c1)OCCn1cc(N3C(=O)OCC3C(F)F)nc1-2)C(N)=O",
    "UNIT INFO": "%",
    "viability, T/C": 75.6
  },
  {
    "COMPOUND": "Cn1nccc1Nc1nccc(-c2ccn(C(CO)c3ccc(Cl)c(F)c3)c(=O)c2)n1 (stereo not given) + COc1c(OCCCN2CCOCC2)ccc2c3n(c(=NC(=O)c4cnc(N)nc4)nc12)CCN3",
    "UNIT INFO": "%",
    "viability, T/C": 56.3
  },
  {
    "COMPOUND": "C#Cc1c(F)ccc2cc(O)cc(-c3ncc4c(N5CC6CCC(C5)N6)nc(OCC56CCCN5CC(F)C6)nc4c3F)c12 (stereo not given) + COc1c(OCCCN2CCOCC2)ccc2c3n(c(=NC(=O)c4cnc(N)nc4)nc12)CCN3",
    "UNIT INFO": "%",
    "viability, T/C": 53.9
  },
  {
    "COMPOUND": "C[C@@H](NC(=O)c1ncnc(N)c1Cl)c1ncc(C(=O)Nc2cc(C(F)(F)F)c(Cl)cn2)s1 + COc1c(OCCCN2CCOCC2)ccc2c3n(c(=NC(=O)c4cnc(N)nc4)nc12)CCN3",
    "UNIT INFO": "%",
    "viability, T/C": 51.1
  },
  {
    "COMPOUND": "CC(Cn1ccc(-c2ccc(C#N)c(Cl)c2)n1)NC(=O)c1cc(C(C)O)[nH]n1 (stereo not given) + Cc1nc(NC(=O)N2CCCC2C(N)=O)sc1-c1ccnc(C(C)(C)C(F)(F)F)c1",
    "UNIT INFO": "%",
    "viability, T/C": 89.4
  },
  {
    "COMPOUND": "CNC(=O)c1ccc(N2C(=S)N(c3ccc(C#N)c(C(F)(F)F)c3)C(=O)C2(C)C)cc1F + CC(Nc1ccc2c(c1)OCCn1cc(N3C(=O)OCC3C(F)F)nc1-2)C(N)=O",
    "UNIT INFO": "%",
    "viability, T/C": 85.9
  },
  {
    "COMPOUND": "Cn1ncnc1[C@H]1c2n[nH]c(=O)c3cc(F)cc(c23)N[C@@H]1c1ccc(F)cc1 + COc1c(OCCCN2CCOCC2)ccc2c3n(c(=NC(=O)c4cnc(N)nc4)nc12)CCN3",
    "UNIT INFO": "%",
    "viability, T/C": 48
  },
  {
    "COMPOUND": "CC(=O)c1c(C)c2cnc(Nc3ccc(N4CCNCC4)cn3)nc2n(C2CCCC2)c1=O + COc1c(OCCCN2CCOCC2)ccc2c3n(c(=NC(=O)c4cnc(N)nc4)nc12)CCN3",
    "UNIT INFO": "%",
    "viability, T/C": 64.1
  },
  {
    "COMPOUND": "Cn1nccc1Nc1nccc(-c2ccn(C(CO)c3ccc(Cl)c(F)c3)c(=O)c2)n1 (stereo not given) + CC(Nc1ncnc2nc[nH]c12)c1cc2cccc(Cl)c2c(=O)n1-c1ccccc1",
    "UNIT INFO": "%",
    "viability, T/C": 80.1
  },
  {
    "COMPOUND": "CC(Cn1ccc(-c2ccc(C#N)c(Cl)c2)n1)NC(=O)c1cc(C(C)O)[nH]n1 (stereo not given) + COc1c(OCCCN2CCOCC2)ccc2c3n(c(=NC(=O)c4cnc(N)nc4)nc12)CCN3",
    "UNIT INFO": "%",
    "viability, T/C": 55.8
  },
  {
    "COMPOUND": "CC1(C)CCC(CN2CCN(c3ccc(C(=O)NS(=O)(=O)c4ccc(NCC5CCOCC5)c([N+](=O)[O-])c4)c(Oc4cnc5[nH]ccc5c4)c3)CC2)=C(c2ccc(Cl)cc2)C1 + CC(Nc1ccc2c(c1)OCCn1cc(N3C(=O)OCC3C(F)F)nc1-2)C(N)=O",
    "UNIT INFO": "%",
    "viability, T/C": 97.9
  },
  {
    "COMPOUND": "CC(=O)c1c(C)c2cnc(Nc3ccc(N4CCNCC4)cn3)nc2n(C2CCCC2)c1=O + Cc1nc(NC(=O)N2CCCC2C(N)=O)sc1-c1ccnc(C(C)(C)C(F)(F)F)c1",
    "UNIT INFO": "%",
    "viability, T/C": 61.6
  },
  {
    "COMPOUND": "CC(C)n1nc(-c2ccc3oc(N)nc3c2)c2c(N)ncnc21 + CC(Nc1ncnc2nc[nH]c12)c1cc2cccc(Cl)c2c(=O)n1-c1ccccc1",
    "UNIT INFO": "%",
    "viability, T/C": 54.4
  },
  {
    "COMPOUND": "C#Cc1c(F)ccc2cc(O)cc(-c3ncc4c(N5CC6CCC(C5)N6)nc(OCC56CCCN5CC(F)C6)nc4c3F)c12 (stereo not given) + Cc1nc(NC(=O)N2CCCC2C(N)=O)sc1-c1ccnc(C(C)(C)C(F)(F)F)c1",
    "UNIT INFO": "%",
    "viability, T/C": 91.1
  },
  {
    "COMPOUND": "Cn1ncnc1[C@H]1c2n[nH]c(=O)c3cc(F)cc(c23)N[C@@H]1c1ccc(F)cc1 + CC(Nc1ncnc2nc[nH]c12)c1cc2cccc(Cl)c2c(=O)n1-c1ccccc1",
    "UNIT INFO": "%",
    "viability, T/C": 65.3
  },
  {
    "COMPOUND": "CCN1CCN(Cc2ccc(Nc3ncc(F)c(-c4cc(F)c5nc(C)n(C(C)C)c5c4)n3)nc2)CC1 + CC(Nc1ccc2c(c1)OCCn1cc(N3C(=O)OCC3C(F)F)nc1-2)C(N)=O",
    "UNIT INFO": "%",
    "viability, T/C": 99.2
  },
  {
    "COMPOUND": "CC(Cn1ccc(-c2ccc(C#N)c(Cl)c2)n1)NC(=O)c1cc(C(C)O)[nH]n1 (stereo not given) + CC(Nc1ncnc2nc[nH]c12)c1cc2cccc(Cl)c2c(=O)n1-c1ccccc1",
    "UNIT INFO": "%",
    "viability, T/C": 86.8
  },
  {
    "COMPOUND": "CC1(C)CCC(Nc2ncc(C(F)(F)F)c(-c3c[nH]c4c(P(C)(C)=O)c(C#N)ccc34)n2)CN1 (stereo not given) + Cc1nc(NC(=O)N2CCCC2C(N)=O)sc1-c1ccnc(C(C)(C)C(F)(F)F)c1",
    "UNIT INFO": "%",
    "viability, T/C": 13.4
  },
  {
    "COMPOUND": "CNC(=O)c1ccc(N2C(=S)N(c3ccc(C#N)c(C(F)(F)F)c3)C(=O)C2(C)C)cc1F + Cc1nc(NC(=O)N2CCCC2C(N)=O)sc1-c1ccnc(C(C)(C)C(F)(F)F)c1",
    "UNIT INFO": "%",
    "viability, T/C": 92.4
  },
  {
    "COMPOUND": "CNC(=O)c1ccc(N2C(=S)N(c3ccc(C#N)c(C(F)(F)F)c3)C(=O)C2(C)C)cc1F + COc1c(OCCCN2CCOCC2)ccc2c3n(c(=NC(=O)c4cnc(N)nc4)nc12)CCN3",
    "UNIT INFO": "%",
    "viability, T/C": 52.7
  }
]
